- targetOrSystem: estrogen receptors (Rattus norvegicus, UniProt P06211)
- Construct: Aliquot of uterine cytosol (200 μl; 2 uteri per ml) prepared in TEA buffer; from tissue; host or cells: uterine cytosol of immature estradiol-primed 20-21 day old rats
- Sequence (P06211 1-600): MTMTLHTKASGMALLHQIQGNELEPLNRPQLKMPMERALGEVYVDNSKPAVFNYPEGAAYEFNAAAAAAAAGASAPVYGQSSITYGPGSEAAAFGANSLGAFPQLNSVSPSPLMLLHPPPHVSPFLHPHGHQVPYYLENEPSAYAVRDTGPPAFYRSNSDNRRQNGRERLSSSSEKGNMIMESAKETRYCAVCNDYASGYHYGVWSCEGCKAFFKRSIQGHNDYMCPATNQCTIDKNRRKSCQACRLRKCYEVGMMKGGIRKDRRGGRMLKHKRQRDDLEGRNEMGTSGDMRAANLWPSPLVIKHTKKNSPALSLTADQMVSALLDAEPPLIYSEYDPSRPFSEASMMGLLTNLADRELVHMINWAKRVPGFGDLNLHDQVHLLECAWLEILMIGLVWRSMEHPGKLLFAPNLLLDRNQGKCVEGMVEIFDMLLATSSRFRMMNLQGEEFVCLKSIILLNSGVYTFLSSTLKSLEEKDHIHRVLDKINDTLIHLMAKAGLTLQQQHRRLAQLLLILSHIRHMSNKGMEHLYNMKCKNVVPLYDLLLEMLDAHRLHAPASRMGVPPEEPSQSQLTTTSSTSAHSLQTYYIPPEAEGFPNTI
- protocolDetails: Relative binding affinity (RBA) to estrogen receptors, 3H-estradiol competition assay
- Design: key: % of 17-beta-estradiol binding affinity (estradiol = 100)
- experimentalSetup: relative to 17-beta-estradiol (=100, percentage value); rat uterine cytosol, 3H-E2, 18 hrs at 4° C.
Collected RBA values appear next to each entry.

Known results for molecules:
[
  {
    "inputSmiles": "Oc1ccc2c(c1)SCCc1c-2n(CCCCCN2CCCC2)c2ccc(O)cc12",
    "RBA": "<0.001"
  },
  {
    "inputSmiles": "Oc1ccc2c(c1)SCCc1c-2n(CCCCCN2CCCC2)c2ccccc12",
    "RBA": 0.83
  },
  {
    "inputSmiles": "COc1ccc2c(c1)SCCc1c-2n(CCCCCN2CCCCC2)c2ccccc12",
    "RBA": "<0.001"
  },
  {
    "inputSmiles": "Oc1ccc2c(c1)c1c(n2CCCCCN2CCCC2)-c2ccccc2SCC1",
    "RBA": "<0.001"
  },
  {
    "inputSmiles": "Oc1ccc2c(c1)c1c(n2CCCCCN2CCCCC2)-c2ccccc2SCC1",
    "RBA": "<0.001"
  },
  {
    "inputSmiles": "CCCCN(C)CCCCCn1c2c(c3ccccc31)CCSc1ccccc1-2.O=C(O)/C=C/C(=O)O",
    "RBA": "<0.001"
  }
]

Lookup: # query: RBA of entry CCCCN(C)CCCCCn1c2c(c3ccccc31)CCSc1ccccc1-2
Found: <0.001

Lookup: # query: RBA of entry COc1ccc2c(c1)SCCc1c-2n(CCCCCN2CCCC2)c2ccccc12
Found: <0.001

Lookup: # query: RBA of entry CCCCN(C)CCCCCCn1c2c(c3ccccc31)CCSc1ccccc1-2
Found: 0.10

Lookup: # query: RBA of entry Oc1ccc2c(c1)SCCc1c-2n(CCCCCN2CCCCC2)c2ccccc12
Found: 10.75

Lookup: # query: RBA of entry c1ccc2c(c1)SCCc1c-2n(CCCCCCN2CCCC2)c2ccccc12
Found: 0.053

Lookup: # query: RBA of entry CCCCN(C)CCCCCn1c2c(c3cc(OC)ccc31)CCSc1cc(OC)ccc1-2
Found: 0.032

Lookup: # query: RBA of entry COc1ccc2c(c1)SCCc1c-2n(CCCCCN2CCCCC2)c2ccc(OC)cc12
Found: <0.001

Lookup: # query: RBA of entry COc1ccc2c(c1)SCCc1c-2n(CCCCCN2CCCC2)c2ccc(OC)cc12
Found: <0.001

Lookup: # query: RBA of entry Oc1ccc2c(c1)SCCc1c-2n(CCCCCN2CCCCC2)c2ccc(O)cc12
Found: <0.001

Lookup: # query: RBA of entry c1ccc2c(c1)SCCc1c-2n(CCCCCCN2CCCCC2)c2ccccc12
Found: 0.17

Lookup: # query: RBA of entry c1ccc2c(c1)OCCc1c-2n(CCCCCCN2CCCCC2)c2ccccc12
Found: 0.059

Lookup: # query: RBA of entry c1ccc2c(c1)SCCc1c-2n(CCCCCN2CCCC2)c2ccccc12
Found: 0.88

Lookup: # query: RBA of entry CCCCN(C)CCCCCn1c2c(c3cc(O)ccc31)CCSc1cc(O)ccc1-2
Found: 0.36
